assay: UV absorption spectral data (wavelength λmax, molar extinction ε, specific extinction E1^1); format: physicochemical; design: unit not given beside the values; details: Table 1
OBSERVATION TYPE: Wavelength λmax

CHEMICAL STRUCTURE: COc1ccc(C=C(C(=O)OCC(C)C)C(=O)OCC(C)C)cc1
Wavelength λmax: 312

CHEMICAL STRUCTURE: COC(=O)C(C#N)=Cc1ccc(N(C)C)cc1
Wavelength λmax: 421

CHEMICAL STRUCTURE: COc1ccc(C=C(C#N)C(=O)N(CC(C)C)CC(C)C)cc1
Wavelength λmax: 325

CHEMICAL STRUCTURE: COC(=O)C(C#N)=Cc1ccc(OC)c(OC)c1
Wavelength λmax: 360

CHEMICAL STRUCTURE: COC(=O)C(C#N)=Cc1ccc(OC)cc1
Wavelength λmax: 340

CHEMICAL STRUCTURE: CCOC(=O)C(=Cc1cccc(O)c1)C(=O)OCC
Wavelength λmax: 282

CHEMICAL STRUCTURE: COC(=O)C(C#N)=Cc1ccc(O)c(OC)c1
Wavelength λmax: 366

CHEMICAL STRUCTURE: COC(=O)C(C#N)=Cc1ccc(C)cc1
Wavelength λmax: 317

CHEMICAL STRUCTURE: CCOC(=O)C(=Cc1ccc(OC)c(OC)c1)C(=O)OCC
Wavelength λmax: 308

CHEMICAL STRUCTURE: COC(=O)C(C#N)=Cc1cccc(OC)c1
Wavelength λmax: 299

CHEMICAL STRUCTURE: C=C(C)C(=O)Oc1ccc(C=C(C#N)C(=O)OC)cc1
Wavelength λmax: 312

CHEMICAL STRUCTURE: CCOC(=O)C(=Cc1ccc(OC)cc1)C(C)=O
Wavelength λmax: 316

CHEMICAL STRUCTURE: COC(=O)C(C#N)=Cc1ccc(O)cc1
Wavelength λmax: 348

---

Molar extinction ε for assorted compounds
assay: UV absorption spectral data (wavelength λmax, molar extinction ε, specific extinction E1^1); type: physicochemical; conditions: Table 1; in M-1cm-1

Answered cases to consult:
CHEMICAL STRUCTURE: CCOC(=O)C(=Cc1ccc(OC)cc1)C(C)=O
Molar extinction ε: 19,000
//
CHEMICAL STRUCTURE: COc1ccc(C=C(C#N)C(N)=O)cc1
Molar extinction ε: 24,300
//
CHEMICAL STRUCTURE: CCOC(=O)C(=Cc1cccc(O)c1)C(=O)OCC
Molar extinction ε: 20,300

# Molar extinction ε (compound: COc1ccc(C=C(C#N)C(=O)N(CC(C)C)CC(C)C)cc1 ) is 15,900

# Molar extinction ε (compound: CCOC(=O)C(=Cc1ccc(OC)c(OC)c1)C(=O)OCC ) is 20,500

# Molar extinction ε (compound: COC(=O)C(C#N)=Cc1ccc(Cl)cc1 ) is 20,900

# Molar extinction ε (compound: COC(=O)C(=Cc1ccc(N(C)C)cc1)C(=O)OC ) is 31,400

# Molar extinction ε (compound: CN(C)c1ccc(C=C(C(N)=O)C(N)=O)cc1 ) is 20,400

---

assay: UV absorption spectral data (wavelength λmax, molar extinction ε, specific extinction E1^1); type: physicochemical; design: unit not given beside the values; conditions: Table 1
OBSERVATION TYPE: Wavelength λmax

CHEMICAL STRUCTURE: COC(=O)C(C#N)=C(C)c1ccc(OC)cc1
Wavelength λmax: 318

CHEMICAL STRUCTURE: COC(=O)C(C#N)=Cc1cccc(N)c1
Wavelength λmax: 310

CHEMICAL STRUCTURE: CCOC(=O)C(=Cc1ccc(O)c(OC)c1)C(C)=O
Wavelength λmax: 340

CHEMICAL STRUCTURE: COC(=O)C(=Cc1ccc(N(C)C)cc1)C(=O)OC
Wavelength λmax: 375

CHEMICAL STRUCTURE: COC(=O)C(C#N)=Cc1cccc(O)c1
Wavelength λmax: 303

CHEMICAL STRUCTURE: COC(=O)C(C#N)=Cc1ccccc1OC
Wavelength λmax: 354

CHEMICAL STRUCTURE: CCOC(=O)C(=Cc1ccc(O)c(OC)c1)C(=O)OCC
Wavelength λmax: 332

CHEMICAL STRUCTURE: COC(=O)C(C#N)=Cc1ccc(Cl)cc1
Wavelength λmax: 313

CHEMICAL STRUCTURE: COc1ccc(C=C(C#N)C(N)=O)cc1
Wavelength λmax: 332

CHEMICAL STRUCTURE: COC(=O)C(C#N)=Cc1ccco1
Wavelength λmax: 337

CHEMICAL STRUCTURE: CN(C)c1ccc(C=C(C(N)=O)C(N)=O)cc1
Wavelength λmax: 369
